- TEST SYSTEM: human CD3 on cells (human PBMC; Jurkat TCR/CD3 NFAT reporter cells) (human, UniProt P07766 23-207; P04234 22-171; P09693 23-182)
- Sequence (P07766 23-207, chain 1 of 3): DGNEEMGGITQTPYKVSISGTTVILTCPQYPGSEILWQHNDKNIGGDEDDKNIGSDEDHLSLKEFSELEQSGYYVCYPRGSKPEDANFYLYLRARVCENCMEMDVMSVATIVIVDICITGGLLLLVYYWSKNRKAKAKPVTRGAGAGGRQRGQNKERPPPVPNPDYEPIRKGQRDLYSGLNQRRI
- Sequence (P04234 22-171, chain 2 of 3): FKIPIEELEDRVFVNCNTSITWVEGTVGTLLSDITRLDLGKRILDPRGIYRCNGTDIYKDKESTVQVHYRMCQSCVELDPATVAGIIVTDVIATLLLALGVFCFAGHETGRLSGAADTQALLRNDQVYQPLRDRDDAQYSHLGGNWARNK
- Sequence (P09693 23-182, chain 3 of 3): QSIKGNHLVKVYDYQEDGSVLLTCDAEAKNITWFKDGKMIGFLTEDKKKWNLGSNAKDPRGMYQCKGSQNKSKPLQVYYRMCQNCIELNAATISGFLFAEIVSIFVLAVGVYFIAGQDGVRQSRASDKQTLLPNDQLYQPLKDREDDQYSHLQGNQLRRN
- ASSAY TEXT: cell-based or functional assay
Listed next: entries and their corresponding CD3-NFAT Activity by CD3 mAb.

Hu192A7B9-11 (antibody, V domains shown, humanized mAb) VH: EVQLQESGPGLVKPSETLSLTCTVSGFSISSYNVHWVRQPPGKGLEWMGRMRYNGDTSYNSALKSRLTISRDTSKNQVSLKLSSVTAADTAVYYCTRGPRGGYYSALFDYWGQGTMVTVSS VL: DIQMTQSPSSLSASVGDRVTITCKASQNINRYLNWYQQKPGKAPKLLISIANSLQTGVPSRFSGSGSGTDFTLTISSLQPEDFATYYCLQHNSWYTFGQGTKLEIK    > 50 % SP34
Hu155A9B1-13 (antibody, V domains shown, humanized mAb) VH: EVQLQESGPGLVKPSETLSLTCTVSGGSISSYNVHWIRQPPGKGLEWIGRVRYNGDTSYNSALKSRVTISVDTSKNQFSLKLSSVTAADTAVYYCARGPYGGSSEPLFDYWGQGTMVTVSS VL: DIQMTQSPSSLSASVGDRVTITCKASQNINKYLNWFQQKPGKAPRLLIYTTNNLQTGIPSRFSGSGSGTDFTLTISSLQPEDFATYFCLQHNSGYTFGQGTKLEIK    ≤ 50 % SP34
Hu155A9B1-7 (antibody, V domains shown, humanized mAb) VH: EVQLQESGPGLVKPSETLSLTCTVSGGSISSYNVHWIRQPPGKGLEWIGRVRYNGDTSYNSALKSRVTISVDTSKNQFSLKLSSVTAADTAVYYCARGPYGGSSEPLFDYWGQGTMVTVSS VL: DIQMTQSPSSLSASVGDRVTITCKASQNINKYLNWFQQKPGKAPRLLIYTTNNLQTGIPSRFSGSGSGTDFTLTISSLQPEDFATYYCLQHNSGYTFGQGTKLEIK    ≤ 50 % SP34
Hu153A6B1-13 (antibody, V domains shown, humanized mAb) VH: EVQLQESGPGLVKPSETLSLTCTVSGGSISSYNIHWIRQPPGKGLEWIGRIRYNGDTSYNSALKSRVTISVDTSKNQFSLKLSSVTAADTAVYYCARGPYGGSREPLFDYWGQGTMVTVSS VL: DIQMTQSPSSLSASVGDRVTITCKTSQNINKYLNWFQQKPGKAPKLLIYTTNNLQTGIPSRFSGSGSGTDFTLTISSLQPEDFATYFCLQHGSGYTFGQGTKLEIK    ≤ 50 % SP34

# context switch: different binder, same CD3-NFAT Activity by CD3 mAb
The reported CD3-NFAT Activity by CD3 mAb of the binder Hu155A9B1-17 (antibody, V domains shown, humanized mAb) VH: EVQLQESGPGLVKPSETLSLTCTVSGFSISSYNVHWVRQPPGKGLEWMGRVRYNGDTSYNSALKSRLTISRDTSKNQASLKLSSVTAADTAVYYCTRGPYGGSSEPLFDYWGQGTMVTVSS VL: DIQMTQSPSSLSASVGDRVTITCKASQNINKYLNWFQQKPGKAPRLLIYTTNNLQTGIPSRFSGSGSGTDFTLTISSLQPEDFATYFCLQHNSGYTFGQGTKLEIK was > 50 % SP34
